- Tested on: serum IgG autoantibodies
- PROTOCOL: ELISA for autoantibody detection: serum antibody binding to native and oxPTM insulin peptides
- Set-up: species or system human
- TEST CONDITIONS: Study cohort 1; in house modifications; cut-off = mean of healthy controls to Nt-INSP plus 3 SEM
Where no end group is shown, it is not given here.
QUANTITY KIND: % binders, Type 1 diabetes (%)

>  <SUBSTANCE>
INSP-4 oxPTM-HOCI: INSP-4 peptide oxidised in house by HOCl (LVEALYLVCGERGFFYTPKT; also: oxidised by HOCl, modified residues not defined)

>  <ASSAY TARGET>
serum IgG autoantibodies

>  <UNIT NAME>
%

>  <% binders, Type 1 diabetes>
66

$$$$
>  <SUBSTANCE>
INSP-6 oxPTM-HOCI: INSP-6 peptide oxidised in house by HOCl (ERGFFYTPKT; not fully specified (N-terminus); also: oxidised by HOCl, modified residues not defined)

>  <ASSAY TARGET>
serum IgG autoantibodies

>  <UNIT NAME>
%

>  <% binders, Type 1 diabetes>
43

$$$$
>  <SUBSTANCE>
ERGFFYTPKT (Ac-ERGFFYTPKT) [insulin B:21-30 native peptide]

>  <ASSAY TARGET>
serum IgG autoantibodies

>  <UNIT NAME>
%

>  <% binders, Type 1 diabetes>
66

$$$$
>  <SUBSTANCE>
LVEALYLVCGERGFFYTPKT [insulin B:11-30 native peptide]

>  <ASSAY TARGET>
serum IgG autoantibodies

>  <UNIT NAME>
%

>  <% binders, Type 1 diabetes>
50

$$$$

* * *

- Test system: CD4+ T-cells (PBMCs)
- PROTOCOL: In vitro peptide stimulation and T-cell proliferation assay, CD4+
- Format: cell-based, human
- TEST CONDITIONS: Type 1 diabetes (N = 18)
Where no end group is shown, it is not given here.
QUANTITY KIND: CD4+ T-cell response, subjects with SI > 1 (%)

>  <ITEM SEQUENCE>
SLYQLENYCN (Ac-SLYQLENYCN) [insulin A:12-21 native peptide]

>  <RESULT VALUE>
(72.2%)

$$$$
>  <ITEM SEQUENCE>
ERGYYYTPKTR (Ac-ERGYYYTPKTR) [oxPTM-INSP-6 version with a C-terminal arginine]

>  <RESULT VALUE>
(72.2%)

$$$$
